system: Lactuca sativa; assay: Phytotoxic activity against Lactuca sativa (lettuce) seeds assessed as inhibition of germination at 10 uM at 26 degC measured 7 days post-drug dose; format: functional, organism-based
The source made the active and inactive calls. The rule behind the calls is not given here.
observation_type: inhibition

Completed entries (count: 5):
[[record]]
compound = "C/C=C(/C)C(=O)O[C@@H]1c2c(C)coc2C[C@@]2(O)CCC[C@H](C)[C@@]12C"
observation_type = "inhibition"
result = "inactive"

[[record]]
compound = "CC1=C2C3OC(=O)[C@H]4CCC[C@H](C[C@@H]2OC1=O)[C@]34C (single isomer, unassigned)"
observation_type = "inhibition"
result = "inactive"

[[record]]
compound = "CC/C=C\\C/C=C\\C/C=C\\CCCCCCCC(=O)O"
observation_type = "inhibition"
result = "inactive"

[[record]]
compound = "Cc1coc2c1[C@@H]1OC(=O)[C@H]3CCC[C@H](C2)[C@@]31C"
observation_type = "inhibition"
result = "inactive"

[[record]]
compound = "CCCCC/C=C\\C/C=C\\CCCCCCCC(=O)O"
observation_type = "inhibition"
result = "inactive"


# ---- query compound ----
Q: Which inhibition value is on record for C=C1COC(=O)[C@@]12C[C@H]1CC[C@@H](OC(=O)/C(C)=C\C)[C@H](C)C1(C)C2 (single isomer, unassigned) ?
A: inactive

* * *

The entries below are paired with their reported Activity.
system: Coptotermes formosanus; experiment: Antitermite activity against greater than third-instar stage of Coptotermes formosanus workers/1 soldier in compound-pretreated filter paper assessed as filter paper consumption at 0.5% at 26 degC after 21 days (reference value: 41.4 +/-5.6 mg); type: functional
The reply should consist of the numeric value with the unit placed after it.

[[record]]
molecule = "C/C=C(/C)C(=O)O[C@@H]1c2c(C)coc2C[C@@]2(O)CCC[C@H](C)[C@@]12C"
observation_type = "Activity"
result = "16.5 mg"


Q: Reported Activity for Coptotermes formosanus, given "CC/C=C\C/C=C\C/C=C\CCCCCCCC(=O)O" ?
A: 44.2 mg

Q: Reported Activity for Coptotermes formosanus, given "CCCCC/C=C\C/C=C\CCCCCCCC(=O)O" ?
A: 44.6 mg

Q: Reported Activity for Coptotermes formosanus, given "Cc1coc2c1[C@@H]1OC(=O)[C@H]3CCC[C@H](C2)[C@@]31C" ?
A: 43.1 mg

Q: Reported Activity for Coptotermes formosanus, given C=C1COC(=O)[C@@]12C[C@H]1CC[C@@H](OC(=O)/C(C)=C\C)[C@H](C)C1(C)C2 (single isomer, unassigned) ?
A: 40 mg

Entry source: ChEMBL document CHEMBL3044720
